# method_notes: log P determination by HPLC (EEC directive 79/831 Annex V.A8)
# Assay type: physicochemical
# protocol_conditions: pH 2.3; HPLC gradient method, acetonitrile/0.1% aqueous phosphoric acid
parameter: chromatographic logP

molecule: C/C(=N\C#N)NC(C)C1CCCCC1 (stereo not shown)
parameter: chromatographic logP
quantitative_readout: 2.19

Source: patent US6806292B2
